Biological target: T1, cynomolgus monkey IL-4Rα (cynomolgus monkey, UniProt P24394 26-231 (human entry), limits assumed)
T1 construct: also called Cyno IL-4Rα; cyIL-4Rα
T1 chain: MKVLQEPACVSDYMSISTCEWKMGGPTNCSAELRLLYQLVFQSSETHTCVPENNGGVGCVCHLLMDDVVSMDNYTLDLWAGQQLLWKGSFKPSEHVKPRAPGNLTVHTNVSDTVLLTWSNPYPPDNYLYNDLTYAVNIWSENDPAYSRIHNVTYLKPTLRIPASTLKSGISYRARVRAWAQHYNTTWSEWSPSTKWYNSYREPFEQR
Experiment: SPR, Carterra LSA;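 note: antibodies captured on an anti-human Fc sensor chip, antigen injected at several concentrations, association and dissociation rates fitted with a 1:1 Langmuir model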
recorded endpoint: KD Relative to Dupilumab
Reply: number alone, nothing else.

**Q:** Recorded KD Relative to Dupilumab of Construct 33 (mAb450) (antibody, IgG4, V domains shown, VH/VL only) VH: EVQLVESGGGLEQPGGSLRLSCAGSGFTFRDFAMTWVRQAPGKGLEWVSSISGSGGNIYYADSVKGRFTISRDNSKNTLYLQMNSLRAEDTAVYYCAKDRVSITIRPRYYGLDVWGQGTTVTVSS VL: DIVMTQSPLSLPVTPGEPASISCTASQSLLYSIGYNYVDWYLQKSGQSPQLLIYLGSKRASGVPDRFSGSGSGTDFTLKISRVEAEDVGFYYCMQALGSPYTFGQGTKLEIK , please.
**A:** 0.05

**Q:** Recorded KD Relative to Dupilumab of Construct 37 (mAb470) (antibody, IgG4, V domains shown, VH/VL only) VH: EVQLVESGGGLEQPGGSLRLSCAGSGFTFRTYAMTWVRQAPGKGLEWVSSISGGGGNTYYADSVKGRFTISRDNSKNTLYLQMNSLRAEDTAVYYCAKDRLSVTVRPRYYGLDVWGQGTTVTVSS VL: DIVMTQSPLSLPVTPGEPASISCRASQSLLYSVGYNYVDWYLQKSGQSPQLLIYLGNNRASGVPDRFSGSGSGTDFTLKISRVEAEDVGFYYCMQSLTSPYTFGQGTKLEIK , please.
**A:** 0.23

**Q:** Recorded KD Relative to Dupilumab of Construct 27 (mAb435) (antibody, IgG4, V domains shown, VH/VL only) VH: EVQLVESGGGLEQPGGSLRLSCAGSGFTFTDFAMTWVRQAPGKGLEWVSSISGSGGNKYYADSVKGRFTISRDNSKNTLYLQMNSLRAEDTAVYYCAKDRLSVTVRPRYYGLDVWGQGTTVTVSS VL: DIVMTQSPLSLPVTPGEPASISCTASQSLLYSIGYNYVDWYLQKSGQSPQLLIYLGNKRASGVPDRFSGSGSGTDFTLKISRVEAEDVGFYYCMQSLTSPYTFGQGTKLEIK , please.
**A:** 0.28

**Q:** Recorded KD Relative to Dupilumab of Construct 25 (mAb433) (antibody, IgG4, V domains shown, VH/VL only) VH: EVQLVESGGGLEQPGGSLRLSCAGSGFTFRDFAMTWVRQAPGKGLEWVSSISGSGDNIYYADSVKGRFTISRDNSKNTLYLQMNSLRAEDTAVYYCAKDRLSKTIRPRYYGLDVWGQGTTVTVSS VL: DIVMTQSPLSLPVTPGEPASISCTASQSLLYSIGYNYLDWYLQKSGQSPQLLIYEGNKRASGVPDRFSGSGSGTDFTLKISRVEAEDVGFYYCMQSLTSPYTFGQGTKLEIK , please.
**A:** 1.12

**Q:** Recorded KD Relative to Dupilumab of Construct 9 (mAb418) (antibody, IgG4, V domains shown, VH/VL only) VH: EVQLVESGGGLEQPGGSLRLSCAGSGFTFTDFAMTWVRQAPGKGLEWVSSISGSGGNIYYADSVKGRFTISRDNSKNTLYLQMNSLRAEDTAVYYCAKDRLSVTVRPRYYGLDVWGQGTTVTVSS VL: DIVMTQSPLSLPVTPGEPASISCRSSQSLLYSIGKNYVDWYLQKSGQSPQLLIYLGNNRATGVPDRFSGSGSGTDFTLKISRVEAEDVGFYYCMQALGSPYTFGQGTKLEIK , please.
**A:** 0.36

These measurements were taken from patent US20260193366A1.
